# Target System: T1, PDZD7_3, Q9H5P4
# T1 sequence (Q9H5P4 857-944, limits assumed, looked up): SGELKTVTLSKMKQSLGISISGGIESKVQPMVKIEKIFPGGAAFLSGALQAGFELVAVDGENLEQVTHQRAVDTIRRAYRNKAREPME
# Test Name: holdup assay
# Set-up: key: below the threshold = too weak to quantify, mostly under pKd 3.1 to 4
# Test Settings: plain residues with an end cap or a label only (N-terminal biotin on a linker: ado-ado)
Value Kind: pKd

>>> measured_value("SSSVNVSSNL [CXCR1, P25024]")
"below the threshold"
>>> measured_value("ELKAEDEVQI [DCHS2, Q6V1P9]")
"below the threshold"
>>> measured_value("QKNKDREYYV [NRXN3, Q9HDB5]")
"below the threshold"
